# system-under-test: Mitogen-activated protein kinase 14 (Homo sapiens)
# experiment-notes: Inhibition of p38-alpha MAPK at 10 uM
I'd appreciate it if you could supply inhibition values for the items below.
Please give the number followed by its unit.

Query: Give recorded inhibition. `OCCCOc1onc(-c2ccc(F)cc2)c1-c1ccncc1`
Reply: 9.8%

Query: Give recorded inhibition. `O=c1on(CCN2CCCCC2)c(-c2ccncc2)c1-c1ccc(F)cc1`
Reply: 38.3%

Query: Give recorded inhibition. `CC(C)n1oc(=O)c(-c2ccc(F)cc2)c1-c1ccncc1`
Reply: 42.2%

Query: Give recorded inhibition. `CC(C)Oc1onc(-c2ccc(F)cc2)c1-c1ccncc1`
Reply: 11.9%

Query: Give recorded inhibition. `COc1onc(-c2ccc(F)cc2)c1-c1ccncc1`
Reply: 26.5%

Query: Give recorded inhibition. `CCOc1onc(-c2ccc(F)cc2)c1-c1ccncc1`
Reply: 13.6%

Query: Give recorded inhibition. Fc1ccc(-c2noc(OCC3CO3)c2-c2ccncc2)cc1 (configuration not stated)
Reply: 23.7%

----------
# system-under-test: Mitogen-activated protein kinase 14 (Homo sapiens, UniProt Q16539)
# Sequence (Q16539 whole entry): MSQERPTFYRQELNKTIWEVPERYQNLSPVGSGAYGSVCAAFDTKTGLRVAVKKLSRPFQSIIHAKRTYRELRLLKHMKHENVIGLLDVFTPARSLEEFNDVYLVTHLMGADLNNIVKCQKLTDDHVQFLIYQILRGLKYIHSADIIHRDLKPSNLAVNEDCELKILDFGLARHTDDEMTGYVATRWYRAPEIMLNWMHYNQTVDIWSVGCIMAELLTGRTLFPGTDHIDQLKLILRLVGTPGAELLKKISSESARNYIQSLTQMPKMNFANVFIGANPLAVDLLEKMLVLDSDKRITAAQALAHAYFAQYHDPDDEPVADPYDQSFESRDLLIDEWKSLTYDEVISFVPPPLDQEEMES
# experiment-notes: Inhibition of p38-alpha MAPK at 10 uM
assay-endpoint: inhibition (%)
Note: unit % is implicit; provide only the numeric part.

Query: Give recorded inhibition. `Fc1ccc(-c2noc(OCC3CC3)c2-c2ccncc2)cc1`
Reply: 26.4

Query: Give recorded inhibition. CC(c1ccccc1)n1oc(=O)c(-c2ccc(F)cc2)c1-c1ccncc1 (stereo unspecified)
Reply: 27.5

Query: Give recorded inhibition. `O=C1c2ccccc2C(=O)N1CCn1oc(=O)c(-c2ccc(F)cc2)c1-c1ccncc1`
Reply: 41.9

Query: Give recorded inhibition. `OCCOc1onc(-c2ccc(F)cc2)c1-c1ccncc1`
Reply: 14.7

Query: Give recorded inhibition. `COCCOc1onc(-c2ccc(F)cc2)c1-c1ccncc1`
Reply: 14.4

Query: Give recorded inhibition. `COCOc1onc(-c2ccc(F)cc2)c1-c1ccncc1`
Reply: 27.8

----------
I'd appreciate it if you could supply pIC50 values for the items below.
# system-under-test: Mitogen-activated protein kinase 14 (Homo sapiens, UniProt Q16539)
# experiment-notes: Inhibition of p38-alpha MAPK
FYI, pIC50 means -log10 of a concentration in mol per litre.

Query: Give recorded pIC50. `O=c1on(CCCO)c(-c2ccncc2)c1-c1ccc(F)cc1`
Reply: 5.94

Query: Give recorded pIC50. `CCNC(=O)n1oc(=O)c(-c2ccc(F)cc2)c1-c1ccncc1`
Reply: 6.64

Query: Give recorded pIC50. `Oc1onc(-c2ccncc2)c1-c1ccc(F)cc1`
Reply: 6.41

Query: Give recorded pIC50. `O=c1on(CC2CC2)c(-c2ccncc2)c1-c1ccc(F)cc1`
Reply: 5.67

Query: Give recorded pIC50. `O=c1o[nH]c(-c2ccc(F)cc2)c1-c1ccncc1`
Reply: 5.85

Query: Give recorded pIC50. `O=C(Nc1ccc(F)cc1)n1oc(=O)c(-c2ccc(F)cc2)c1-c1ccncc1`
Reply: 6.49

Query: Give recorded pIC50. `CC(=O)n1oc(=O)c(-c2ccc(F)cc2)c1-c1ccncc1`
Reply: 6.92

Query: Give recorded pIC50. `CSc1nc(-c2ccc(F)cc2)c(-c2ccncc2)n1CCCO`
Reply: 6.09

Query: Give recorded pIC50. `COCn1oc(=O)c(-c2ccc(F)cc2)c1-c1ccncc1`
Reply: 5.67

Query: Give recorded pIC50. `CCn1oc(=O)c(-c2ccc(F)cc2)c1-c1ccncc1`
Reply: 5.79

Query: Give recorded pIC50. O=c1on(CC2CO2)c(-c2ccncc2)c1-c1ccc(F)cc1 (stereo not drawn)
Reply: 5.42

Query: Give recorded pIC50. `CSCCn1oc(=O)c(-c2ccc(F)cc2)c1-c1ccncc1`
Reply: 5.41

Query: Give recorded pIC50. `O=c1on(CCO)c(-c2ccncc2)c1-c1ccc(F)cc1`
Reply: 5.60

Query: Give recorded pIC50. `CCOCCn1oc(=O)c(-c2ccc(F)cc2)c1-c1ccncc1`
Reply: 5.88

Query: Give recorded pIC50. `Cc1ccc(S(=O)(=O)n2oc(=O)c(-c3ccc(F)cc3)c2-c2ccncc2)cc1`
Reply: 6.32

Query: Give recorded pIC50. `O=c1on(C(=S)Nc2ccc(F)cc2)c(-c2ccncc2)c1-c1ccc(F)cc1`
Reply: 6.46

Query: Give recorded pIC50. `CCOC(=O)CCNC(=O)n1oc(=O)c(-c2ccc(F)cc2)c1-c1ccncc1`
Reply: 6.01

Query: Give recorded pIC50. `COCCOCn1oc(=O)c(-c2ccc(F)cc2)c1-c1ccncc1`
Reply: 5.42
